# Tested on: Leishmania donovani
# Method: Tested in vitro for leishmanicidal activity against Leishmania donovani (PP75) at the concentration of 25 ug/mL;+ indicates Less than 70% lysis of parasites
# Type: functional, organism-based
Assay endpoint: Activity

Compound	Study system	Reported
CCCCCCCCCCCCCCC(CNCC)NC(=O)OC(C)(C)C (centres undefined)	Leishmania donovani	80-90% lysis of parasites
CCCCCCCCCCCCCCC(N)CNCC (centres undefined)	Leishmania donovani	80-90% lysis of parasites
CCCCCCCCCCCCCCC(CO)NC(=O)CCCC(=O)O (centres undefined)	Leishmania donovani	80-90% lysis of parasites
CCCCCCCCCCCCCCC(CNCC(=O)OCC)NC(=O)OC(C)(C)C (centres undefined)	Leishmania donovani	80-90% lysis of parasites
CCCCCCCCCCCCCCC(N)CN(CC(=O)O)CC(=O)O (centres undefined)	Leishmania donovani	80-90% lysis of parasites
CCCCCCCCCCCCCCC(CO)N(CC)CC (centres undefined)	Leishmania donovani	80-90% lysis of parasites
CCCCCCCCCCCCCCC(CO)NCC(=O)OCC (centres undefined)	Leishmania donovani	80-90% lysis of parasites

###

Readings of Activity for the listed compounds
# System: Leishmania amazonensis
# Method: In vitro for leishmanicidal activity against Leishmania amazonensis (PH8) at the concentration of 10 ug/mL.
# Assay type: functional, organism-based
Assay endpoint: Activity

Compound	Reported
CCCCCCCCCCCCCCC(N)CN (stereo unspecified)	80-90% lysis of parasites
CCCCCCCCCCCCCCC(N)CN(CC(=O)O)CC(=O)O (stereo unspecified)	80-90% lysis of parasites
CCCCCCCCCCCCCCC(COCc1ccccc1)NCC(=O)OCC (stereo unspecified)	80-90% lysis of parasites

###

# Tested on: Leishmania amazonensis
# Method: In vitro for leishmanicidal activity against Leishmania amazonensis (PH8) at the concentration of 50 ug/mL.
# Format: functional, organism-based

Compound	Activity
CCCCCCCCCCCCCCC(N)CO (stereo not given)	80-90% lysis of parasites
CCCCCCCCCCCCCCC(CN(CC)CC)NC(=O)OC(C)(C)C (stereo not given)	+
CCCCCCCCCCCCCCC(COCc1ccccc1)NC(=O)CCCC(=O)O (stereo not given)	80-90% lysis of parasites
CCCCCCCCCCCCCCC(N)CN(CC(=O)OCC)CC(=O)OCC (stereo not given)	+
CCCCCCCCCCCCCCC(CO)NC(=O)OC(C)(C)C (stereo not given)	80-90% lysis of parasites

###

# System: Leishmania donovani
# Method: In vitro for leishmanicidal activity against Leishmania donovani (PP75) at the concentration of 50 ug/mL.
# Format: functional, organism-based
Assay endpoint: Activity

Compound	Study system	Assay endpoint	Reported
CCCCCCCCCCCCCCC(COCc1ccccc1)N(CC)CC (stereo not given)	Leishmania donovani	Activity	80-90% lysis of parasites
C[C@@H]1[C@H](O)[C@@H](C)/C=C/C=C/C=C/C=C/C=C/C=C/C=C/[C@H](O[C@@H]2O[C@H](C)[C@@H](O)[C@H](N)[C@@H]2O)C[C@@H]2O[C@](O)(C[C@@H](O)C[C@@H](O)[C@H](O)CC[C@@H](O)C[C@@H](O)CC(=O)O[C@H]1C)C[C@H](O)[C@H]2C(=O)O	Leishmania donovani	Activity	+
CCCCCCCCCCCCCCC(N)CO (stereo not given)	Leishmania donovani	Activity	80-90% lysis of parasites
CCCCCCCCCCCCCCC(N)CN(CC)CC (stereo not given)	Leishmania donovani	Activity	+
CCCCCCCCCCCCCCC(N)CN(CC(=O)OCC)CC(=O)OCC (stereo not given)	Leishmania donovani	Activity	+
CCCCCCCCCCCCCCC(COC(=O)CCCCCC)NC(=O)CCCCCC (stereo not given)	Leishmania donovani	Activity	80-90% lysis of parasites
CCCCCCCCCCCCCCC(NC(=O)OC(C)(C)C)C(=O)O (stereo not given)	Leishmania donovani	Activity	80-90% lysis of parasites
CCCCCCCCCCCCCCC(COCc1ccccc1)NC(=O)CCCC(=O)O (stereo not given)	Leishmania donovani	Activity	80-90% lysis of parasites
CCCCCCCCCCCCCCC(CN(CC(=O)OCC)CC(=O)OCC)NC(=O)OC(C)(C)C (stereo not given)	Leishmania donovani	Activity	80-90% lysis of parasites
CCCCCCCCCCCCCCC(CN(CC)CC)NC(=O)OC(C)(C)C (stereo not given)	Leishmania donovani	Activity	+
CCCCCCCCCCCCCCC(CNCC)NC(=O)OC(C)(C)C (stereo not given)	Leishmania donovani	Activity	+
CCCCCCCCCCCCCCC(CN(CC)CC)NC(=O)CCCC(=O)O (stereo not given)	Leishmania donovani	Activity	+
CCCCCCCCCCCCCCC(COCc1ccccc1)NCC (stereo not given)	Leishmania donovani	Activity	80-90% lysis of parasites
CCCCCCCCCCCCCCC(CO)N(CC)CC (stereo not given)	Leishmania donovani	Activity	+
CCCCCCCCCCCCCCC(CN)NC(=O)OC(C)(C)C (stereo not given)	Leishmania donovani	Activity	80-90% lysis of parasites
CCCCCCCCCCCCCCC(CO)NCC (stereo not given)	Leishmania donovani	Activity	+

Provenance of the data: ChEMBL document CHEMBL1135076
